- TESTED SYSTEM: T1, HLA-A*02:01 molecule
- T1 construct: MHC class I molecule on T2 cells (ATCC); also called product of an HLA-A*02:01 gene; allele A*02:01
- ASSAY PROTOCOL: flow cytometry, T2 cells
Here the recorded log Kd is given for each entry.
READOUT LABEL: log Kd

>>> print(df.to_string())
                                     binder  value_qualifier  readout_number
0  ARHSTIPLV (synthetic 9-mer derived from c-Myb) [peptide of SEQ ID NO: 77]                >              -3
1  SLVLTWAAL (synthetic 9-mer derived from EVC2) [peptide of SEQ ID NO: 14]                =           -5.63
2  VLLQQFQTA (synthetic 9-mer derived from EVC2) [peptide of SEQ ID NO: 15]                =           -4.71
3  YTYDPPTTI (synthetic 9-mer derived from CADM1) [peptide of SEQ ID NO: 3]                =           -5.47
